Measured values drawn from PubChem BioAssay for this set.

# experiment_summary: small-molecule binders of probe aLefty1, primary screen, biochemical, small-molecule microarray, 635/667 nm fluorescence (AID 1153);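 note: score merges spot fluorescence with signal-to-noise ratio from the scanned slide images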
# experimental_parameters: higher = more signal
# composite z-score >= 0.1 gives label 1, anything below gives label 0

Given the entry CCCCCN1CC=CC23O[C@@H]4C=CCOC(=O)[C@@H]4[C@H]2C(=O)N(CCCO)[C@@H]3C1=O (some centres not stated) , answer whether its composite z-score meets or surpasses 0.1. label 0

Given the entry C=CC(=C)C1=CCO[C@@H]1[C@H]1CCCN1S(=O)(=O)c1ccccc1[N+](=O)[O-] , answer whether its composite z-score meets or surpasses 0.1. label 0

Given the entry COc1ccc([Si](C)(C)[C@@H]2[C@@H](CC(=O)N3CCC[C@H]3CO)O[C@]3(C(=O)N(C)c4c(Br)cc(C)cc43)[C@H]2C)cc1 , answer whether its composite z-score meets or surpasses 0.1. label 0

Given the entry C=CCC(OC(C)=O)[C@@H]1[C@@H](N(Cc2ccc(-c3ccccc3)cc2)C(=O)Cc2ccc(OC)cc2)c2cc(OCCCO)ccc2N1C(=O)c1ccc2ccccc2n1 (some centres not stated) , answer whether its composite z-score meets or surpasses 0.1. label 1

Given the entry CO[C@H]1O[C@H](CO)[C@@H](OC(=O)Nc2ccc(Oc3ccccc3)cc2)[C@H](OC(=O)Nc2ccccc2)[C@H]1OC(=O)Nc1ccccc1 , answer whether its composite z-score meets or surpasses 0.1. label 1

Given the entry [N-]=[N+]=NCc1ccccc1[C@@H]1OC(c2ccc(OCCCO)cc2)=N[C@]1(Cc1ccccc1N=[N+]=[N-])C(=O)NCc1ccccc1 , answer whether its composite z-score meets or surpasses 0.1. label 1

Given the entry COc1ccc(CCNC(=O)[C@@H]2c3ccccc3C(=O)N(Cc3ccc(OC(F)(F)F)cc3)[C@H]2c2ccc(CO)cc2)cc1 , answer whether its composite z-score meets or surpasses 0.1. label 0

Given the entry CC(C)C[C@@H]1NC(=O)[C@@H]2C[C@H](C(=O)NCCCCCC[N+](C)(C)C)[C@H](c3ccc(O)cc3)N2C1=O , answer whether its composite z-score meets or surpasses 0.1. label 1

Given the entry Cc1ccc([C@H]2C(C(=O)O)=C[C@@H](C)N2S(=O)(=O)c2ccc(C)cc2)cc1 , answer whether its composite z-score meets or surpasses 0.1. label 0

Given the entry Cc1ccc([C@H]2[C@H](C(=O)O)[C@H](Sc3ccccc3)[C@@H](C(C)C)N2S(=O)(=O)c2ccc(C)cc2)cc1 , answer whether its composite z-score meets or surpasses 0.1. label 0

Given the entry COc1ccc(C#Cc2ccc3c(c2)[C@]2(C(=O)N3)[C@H](c3ccc(O)cc3)N3[C@H](c4ccccc4)[C@H](c4ccccc4)OC(=O)[C@H]3[C@@H]2C(=O)NC[C@H](O)c2ccccc2)cc1 , answer whether its composite z-score meets or surpasses 0.1. label 0

Given the entry COC(=O)C[C@@H]1C[C@H](C)[C@]2(O1)C(=O)N(Cc1ccccc1)c1ccc(NC(C)=O)cc12 , answer whether its composite z-score meets or surpasses 0.1. label 0

Given the entry COc1ccc(C(=O)Nc2cccc(CN3C(=O)[C@@]4(O[C@@H](CCn5cc(CCO)nn5)[C@H]([Si](C)(C)c5ccc(OC)cc5)[C@H]4C)c4ccccc43)c2)cc1 , answer whether its composite z-score meets or surpasses 0.1. label 1

Given the entry O=C1O[C@H](c2ccccc2)[C@H](c2ccccc2)N2[C@H]1[C@@H](C(=O)Nc1nc3ccccc3s1)[C@]1(C(=O)Nc3ccccc31)[C@H]2c1ccc(O)cc1 , answer whether its composite z-score meets or surpasses 0.1. label 0

Given the entry CC(C)N1CC=CC23O[C@@H]4C=CCOC(=O)[C@@H]4[C@H]2C(=O)N(CCO)[C@@H]3C1=O (some centres not stated) , answer whether its composite z-score meets or surpasses 0.1. label 0

Given the entry COc1ccc([Si](C)(C)[C@H]2[C@H](CCn3cc(CCO)nn3)O[C@@]3(C(=O)N(Cc4ccc(N5CCOC5=O)cc4)c4ccccc43)[C@@H]2C)cc1 , answer whether its composite z-score meets or surpasses 0.1. label 1

Given the entry C=CCC(OC(C)=O)[C@@H]1[C@@H](N(Cc2cccc3ccccc23)C(=O)c2cccc3ccccc23)c2cc(OCCCO)ccc2N1C(=O)c1ccc2ccccc2n1 (some centres not stated) , answer whether its composite z-score meets or surpasses 0.1. label 0

Given the entry C=C(CCCC)/C(=C/C[C@H](OC(C)=O)c1ccc(CO)o1)c1cnc2ccccc2c1 , answer whether its composite z-score meets or surpasses 0.1. label 0

Given the entry COc1ccc(CCN2C(=O)[C@@]3(Cc4ccccc42)c2ccccc2C(=O)N(Cc2ccccc2Cl)[C@H]3c2ccc(CO)cc2)cc1 , answer whether its composite z-score meets or surpasses 0.1. label 0

Given the entry C=CC[C@@]1(C(=O)N2CCOCC2)N=C(c2ccc(OCCCO)cc2)O[C@@H]1c1ccccc1N=[N+]=[N-] , answer whether its composite z-score meets or surpasses 0.1. label 1

Given the entry CC(C)C(=C=CC[C@@H](O)c1ccccc1OCCO)C[C@@H](O)c1ccccn1 , answer whether its composite z-score meets or surpasses 0.1. label 0

Given the entry CN(C)C(=O)[C@]1(CCC(=O)OC(C)(C)C)N=C(c2ccc(OCCCO)cc2)O[C@@H]1c1ccccc1N=[N+]=[N-] , answer whether its composite z-score meets or surpasses 0.1. label 1
